Provenance of the data: patent US20250197372A1

# test system: recombinant human GBA (beta-glucocerebrosidase) (Homo sapiens, UniProt P04062)
# Sequence (P04062 40-536): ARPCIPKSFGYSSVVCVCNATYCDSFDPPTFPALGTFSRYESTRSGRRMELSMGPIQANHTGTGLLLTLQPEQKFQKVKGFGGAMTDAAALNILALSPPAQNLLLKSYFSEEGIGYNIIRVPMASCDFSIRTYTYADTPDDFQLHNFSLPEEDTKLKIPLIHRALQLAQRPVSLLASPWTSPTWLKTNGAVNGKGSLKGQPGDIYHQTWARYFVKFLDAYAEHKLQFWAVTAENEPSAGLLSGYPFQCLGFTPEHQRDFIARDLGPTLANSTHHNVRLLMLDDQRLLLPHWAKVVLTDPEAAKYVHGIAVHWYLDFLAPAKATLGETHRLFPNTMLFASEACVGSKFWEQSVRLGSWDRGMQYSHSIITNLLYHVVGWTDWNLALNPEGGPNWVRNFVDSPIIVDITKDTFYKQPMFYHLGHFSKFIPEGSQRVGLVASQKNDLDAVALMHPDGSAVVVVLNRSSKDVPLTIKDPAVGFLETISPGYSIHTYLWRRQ
# protocol details: Beta-glucocerebrosidase (GBA, glucosylceramidase) assay (4-methylumbelliferyl-beta-D-pyranoside substrate, fluorescence)
measurement name: pIC50
Answer as the number alone; pIC50 is minus log10 of concentration in mol/L.

Use the examples below as a reference point.
compound="N#Cc1cc(NCc2ccc(CN3C[C@H](O)[C@@H](O)[C@H](O)[C@H]3CO)cc2)cc(-c2ncccn2)c1 [Compound 1065]" endpoint_result=4.49
compound="Cc1cc(-c2ncccn2)ccc1NCCCCCCN1C[C@H](O)[C@@H](O)[C@H](O)[C@H]1CO [Compound 1233]" endpoint_result=5.88
compound="O=S(=O)(Nc1cc(-c2ncccn2)ccc1NCCCCCCN1C[C@H](O)[C@@H](O)[C@H](O)[C@H]1CO)C1CC1 [Compound 1227]" endpoint_result=6.23

-- ask Any idea what its pIC50 is? The compound is COc1cc(NCCc2ccc(CCN3C[C@H](O)[C@@H](O)[C@H](O)[C@H]3CO)cc2)cc(-c2ncccn2)c1 [Compound 1156]
-- reply 5.15

-- ask Endpoint output: pIC50 of CS(=O)(=O)Nc1ccc(NCCCCCCN2C[C@H](O)[C@@H](O)[C@H](O)[C@H]2CO)c([N+](=O)[O-])c1 [Compound 1300] . Value?
-- reply 7.59

-- ask Item under review: NS(=O)(=O)c1cc(-c2ncccn2)ccc1NCCCCCCN1C[C@H](O)[C@@H](O)[C@H](O)[C@H]1CO [Compound 1265] . Reported pIC50?
-- reply 5.29

-- ask Fill in: pIC50 of [N-]=[N+]=Nc1ccc(NCCN(CCC(N)=O)CCN2C[C@H](O)[C@@H](O)[C@H](O)[C@H]2CO)c([N+](=O)[O-])c1 [Compound 1235] is ___
-- reply 4.94

-- ask Which pIC50 reading was recorded for the compound OC[C@@H]1[C@@H](O)[C@H](O)[C@@H](O)CN1CCc1ccc(CCNc2cc(Cl)cc(-c3cccnn3)c2)cc1 [Compound 1163] ?
-- reply 5.17

-- ask Looking for the measured pIC50 of CC#Cc1ccc(NCCCCCCN2C[C@H](O)[C@@H](O)[C@H](O)[C@H]2CO)c([N+](=O)[O-])c1 [Compound 1290] , can you help?
-- reply 6.76

-- ask Which measured pIC50 value corresponds to OC[C@@H]1[C@@H](O)[C@H](O)[C@@H](O)CN1Cc1ccc(CNc2ccc(C3=COCCO3)cc2)cc1 [Compound 1093] ?
-- reply 5.13

-- ask Can you look up the measured pIC50 of N#CCc1ccc(NCCCCCCN2C[C@H](O)[C@@H](O)[C@H](O)[C@H]2CO)c([N+](=O)[O-])c1 [Compound 1299] for me?
-- reply 5.47

* * *

# test system: recombinant alpha-glucosidase I (human full-length glucosidase I, Glu 1) (Homo sapiens)
# Construct: 6-His (C); made in house; host or cells: HEK-293T cells transduced with BacMam virus (virus raised in Sf9)
# protocol details: Alpha-glucosidase I assay (Amplex Red glucose detection, synthetic trisaccharide substrate)
# Assay type: biochemical
# measurement context: Glucosidase 1; read-out: Glu 1 IC50
measurement name: log10(IC50) (log10 of the value in nM)
Units before log transform: nM; reported quantity: IC50; transform: log10.

compound="OC[C@@H]1[C@@H](O)[C@H](O)[C@@H](O)CN1CCCCCCNc1ccc(-c2ncccn2)cc1F [Compound 1229]" measurement_name=log10(IC50) endpoint_result=1.97
compound="OC[C@@H]1[C@@H](O)[C@H](O)[C@@H](O)CN1Cc1cccc(CNc2cc(-c3ncccn3)cc(C3CC3)c2)n1 [Compound 1333]" measurement_name=log10(IC50) endpoint_result=3.66
compound="[N-]=[N+]=Nc1ccc(NCCc2ccc(CCN3C[C@@H](O)[C@H](O)[C@@H](O)[C@@H]3CO)c3ccccc23)c([N+](=O)[O-])c1 (stereo in doubt) [Compound 1178]" measurement_name=log10(IC50) endpoint_result=3.44
compound="CS(C)=NS(=O)(=O)c1cc(-c2ncccn2)ccc1NCCCCCCN1C[C@H](O)[C@@H](O)[C@H](O)[C@H]1CO [Compound 1247]" measurement_name=log10(IC50) endpoint_result=2.69

We next turn to a different compound, shown below.
-- ask I have this compound here, [N-]=[N+]=Nc1ccc(NCc2ccc(CN3C[C@H](O)[C@@H](O)[C@H](O)[C@H]3CO)cc2)c([N+](=O)[O-])c1 [Compound 1170] , and I need its recorded log10(IC50).
-- reply 0.60

* * *

# test system: recombinant human GAA (acid alpha-glucosidase) (Homo sapiens, UniProt P10253)
# protocol details: Acid alpha-glucosidase (GAA) assay (4-methylumbelliferyl-alpha-D-pyranoside substrate, fluorescence)
# Experimental: Acid alpha-glucosidase (GAA): To analyze inhibitory effects of a test compound, commercially available recombinant human GAA was incubated with multiple dilutions of test compound for 60 minutes at 37° C. […] 1,4-methyllumbelliferone is detected by fluorescence (excitation at 365 nm, emission at 440 nm). Relative fluorescence compared to untreated enzymatic activity and test compound concentration is plotted as a function of percent inhibition. […]
pIC50: −log10 of the molar value.
Kind request: treat 7 as inclusive, so pIC50 at 7 or higher is 1, anything lower is 0.

structure=OC[C@@H]1[C@@H](O)[C@H](O)[C@@H](O)CN1Cc1cccc(CNc2ccc(-c3cccnn3)cc2)c1 group=0
structure=[N-]=[N+]=Nc1ccc(NCCNS(=O)(=O)NCCN2C[C@H](O)[C@@H](O)[C@H](O)[C@H]2CO)c([N+](=O)[O-])c1 group=0
structure=COc1cc(NCCCCCCN2C[C@H](O)[C@@H](O)[C@H](O)[C@H]2CO)cc(-c2ncccn2)c1 group=1

-- ask Check if pIC50 >= 7 (inclusive). Item: CS(C)=NS(=O)(=O)c1cc(-c2ncccn2)ccc1NCCCCCCN1C[C@H](O)[C@@H](O)[C@H](O)[C@H]1CO
-- reply 1

-- ask Is it the case that [N-]=[N+]=Nc1ccc(NCC[C@H]2CC[C@H](CCN3C[C@H](O)[C@@H](O)[C@H](O)[C@H]3CO)CC2)c([N+](=O)[O-])c1 has pIC50 reaching or exceeding 7?
-- reply 0

* * *

# test system: recombinant alpha-glucosidase I (human full-length glucosidase I, Glu 1) (Homo sapiens)
# Construct: 6-His (C); made in house; host or cells: HEK-293T cells transduced with BacMam virus (virus raised in Sf9)
# Sequence (Q13724 1-837): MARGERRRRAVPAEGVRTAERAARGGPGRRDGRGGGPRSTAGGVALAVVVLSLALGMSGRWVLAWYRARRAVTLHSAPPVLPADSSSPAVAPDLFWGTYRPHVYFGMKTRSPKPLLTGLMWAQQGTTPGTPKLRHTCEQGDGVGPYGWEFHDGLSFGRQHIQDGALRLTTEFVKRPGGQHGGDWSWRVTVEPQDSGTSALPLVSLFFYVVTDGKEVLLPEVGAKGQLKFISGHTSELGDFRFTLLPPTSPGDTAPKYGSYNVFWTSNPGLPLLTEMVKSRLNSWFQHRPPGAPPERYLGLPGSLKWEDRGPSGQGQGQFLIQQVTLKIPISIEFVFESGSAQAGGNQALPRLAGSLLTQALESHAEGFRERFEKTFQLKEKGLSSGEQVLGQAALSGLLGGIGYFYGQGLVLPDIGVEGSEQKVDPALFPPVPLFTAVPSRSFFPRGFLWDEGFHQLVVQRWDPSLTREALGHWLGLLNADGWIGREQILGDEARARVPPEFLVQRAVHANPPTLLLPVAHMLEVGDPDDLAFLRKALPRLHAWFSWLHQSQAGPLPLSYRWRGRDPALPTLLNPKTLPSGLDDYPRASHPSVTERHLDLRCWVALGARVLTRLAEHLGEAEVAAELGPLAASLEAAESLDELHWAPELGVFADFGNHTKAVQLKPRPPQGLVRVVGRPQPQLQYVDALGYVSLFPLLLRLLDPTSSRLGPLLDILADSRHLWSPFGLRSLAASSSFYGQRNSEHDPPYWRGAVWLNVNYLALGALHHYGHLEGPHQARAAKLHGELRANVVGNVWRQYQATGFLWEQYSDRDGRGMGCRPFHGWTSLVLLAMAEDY
# protocol details: Alpha-glucosidase I assay (Amplex Red glucose detection, synthetic trisaccharide substrate)
# Assay type: biochemical
# measurement context: Glucosidase 1; read-out: Glu 1 IC50
measurement name: pIC50
Note on pIC50: it is the negative log10 of concentration, concentration in mol/L.

Some molecules with known pIC50 results, for comparison:
molecule="OC[C@@H]1[C@@H](O)[C@H](O)[C@@H](O)CN1CCCCCCNc1cc(Cl)cc(-c2cnccn2)c1 [Compound 1196]" test_system="recombinant alpha-glucosidase I (human full-length glucosidase I, Glu 1) (Homo sapiens)" endpoint_result=6.98
molecule="NS(=O)(=O)c1cc(-c2ncccn2)ccc1NCCCCCCN1C[C@H](O)[C@@H](O)[C@H](O)[C@H]1CO [Compound 1265]" test_system="recombinant alpha-glucosidase I (human full-length glucosidase I, Glu 1) (Homo sapiens)" endpoint_result=6.55
molecule="OC[C@@H]1[C@@H](O)[C@H](O)[C@@H](O)CN1CCCCCCNc1cc(Cl)cc(-c2ncccn2)c1 [Compound 1212]" test_system="recombinant alpha-glucosidase I (human full-length glucosidase I, Glu 1) (Homo sapiens)" endpoint_result=6.98
molecule="COc1cc(NCCCCCCN2C[C@H](O)[C@@H](O)[C@H](O)[C@H]2CO)cc(C2CCCCC2)c1 [Compound 1148]" test_system="recombinant alpha-glucosidase I (human full-length glucosidase I, Glu 1) (Homo sapiens)" endpoint_result=6.43
molecule="CC(=O)Nc1cc(NCCCCCCN2C[C@H](O)[C@@H](O)[C@H](O)[C@H]2CO)cc(-c2ncccn2)c1 [Compound 1125]" test_system="recombinant alpha-glucosidase I (human full-length glucosidase I, Glu 1) (Homo sapiens)" endpoint_result=6.47

-- ask Give the reported pIC50 for O=[N+]([O-])c1cc(-c2ncccn2)ccc1NCCc1ccc(CCN2C[C@H](O)[C@@H](O)[C@H](O)[C@H]2CO)cc1 [Compound 1111] (system: recombinant alpha-glucosidase I (human full-length glucosidase I, Glu 1) (Homo sapiens)).
-- reply 7.17

-- ask What value of pIC50 on recombinant alpha-glucosidase I (human full-length glucosidase I, Glu 1) (Homo sapiens) does COc1cc(NCCCCCCN2C[C@H](O)[C@@H](O)[C@H](O)[C@H]2CO)cc(C2CCCO2)c1 (some centres unmarked) [Compound 1146] have?
-- reply 6.29

-- ask Param readout = pIC50; param system = recombinant alpha-glucosidase I (human full-length glucosidase I, Glu 1) (Homo sapiens); param query = O=C(O)c1cc(NCCCCCCN2C[C@H](O)[C@@H](O)[C@H](O)[C@H]2CO)cc(-c2ncccn2)c1 [Compound 1118] ; response: value
-- reply 8.00

-- ask Item Cc1cc(NCc2ccc(CN3C[C@H](O)[C@@H](O)[C@H](O)[C@H]3CO)cc2)cc(N2CCOCC2)c1 [Compound 1048] with recombinant alpha-glucosidase I (human full-length glucosidase I, Glu 1) (Homo sapiens) - pIC50?
-- reply 6.84

-- ask Form field: pIC50 recorded for N#Cc1cc(NCc2cccc(CN3C[C@H](O)[C@@H](O)[C@H](O)[C@H]3CO)c2)cc(-c2cccnn2)c1 [Compound 1046] with recombinant alpha-glucosidase I (human full-length glucosidase I, Glu 1) (Homo sapiens) (enter value)
-- reply 7.77

-- ask Please state recorded pIC50 (tested on recombinant alpha-glucosidase I (human full-length glucosidase I, Glu 1) (Homo sapiens)) of N#Cc1cc(NCc2ccc(CN3C[C@H](O)[C@@H](O)[C@H](O)[C@H]3CO)cc2)cc(-c2ncccn2)c1 [Compound 1065]
-- reply 8.05

-- ask // lookup pIC50 | system=recombinant alpha-glucosidase I (human full-length glucosidase I, Glu 1) (Homo sapiens) | key= [N-]=[N+]=Nc1ccc(NCCCCCCN2C[C@H](O)[C@@H](O)[C@H](O)[C@H]2CO)c(C(=O)O)c1 [Compound 1297]
-- reply 5.89

-- ask // lookup pIC50 | system=recombinant alpha-glucosidase I (human full-length glucosidase I, Glu 1) (Homo sapiens) | key= [N-]=[N+]=Nc1ccc(NCCc2ccc(CCN3C[C@H](O)[C@@H](O)[C@H](O)[C@H]3CO)cc2)c([N+](=O)[O-])c1 [Compound 1200]
-- reply 7.51
